The origin of these recorded values is ChEMBL document CHEMBL1132237.

Assay: Oral bioavailability in rat
Assay type: ADME, organism-based
Conditions: in vivo
EXPERIMENTAL_ENDPOINT: bioavailability (%)
Kindly provide the numeric value in % only, without the unit symbol.

In [3]: df
Out[3]:
                                   molecule  experimental_endpoint  recorded_value
0  FC(Cc1c[nH]c2ccc(-n3cnnc3)cc12)CN1CCC(Cc2ccccc2)CC1 (stereo not drawn)        bioavailability              14
1  FC(F)(Cc1c[nH]c2ccc(-n3cnnc3)cc12)CN1CCC(OCc2ccccc2)CC1        bioavailability              11

Form field: reported bioavailability of `Fc1cccc(CCN2CCN(CCCc3c[nH]c4ccc(-n5cnnc5)cc34)CC2)c1`
27

====

Target: 5-hydroxytryptamine receptor 1B (Homo sapiens)
Sequence (P28222 whole entry): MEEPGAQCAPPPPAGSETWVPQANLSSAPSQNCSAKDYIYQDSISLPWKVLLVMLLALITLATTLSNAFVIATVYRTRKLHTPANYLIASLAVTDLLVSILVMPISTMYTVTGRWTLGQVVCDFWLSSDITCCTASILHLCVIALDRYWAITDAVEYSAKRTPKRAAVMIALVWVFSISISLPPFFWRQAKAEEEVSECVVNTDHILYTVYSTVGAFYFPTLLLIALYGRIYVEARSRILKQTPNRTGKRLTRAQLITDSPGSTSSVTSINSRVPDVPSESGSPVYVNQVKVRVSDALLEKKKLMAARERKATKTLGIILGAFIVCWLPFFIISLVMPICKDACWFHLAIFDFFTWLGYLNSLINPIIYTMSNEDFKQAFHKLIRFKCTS
Assay: Displacement of specific [3H]5-HT binding to cloned human 5-hydroxytryptamine 1B receptor expressed in CHO cells
pIC50: −log10 of the molar value.
Label label 1 when pIC50 >= 7; otherwise label 0.

                                   molecule  group_label
0  FC1(Cc2ccccc2)CCN(CCCc2c[nH]c3ccc(-n4cnnc4)cc23)CC1      label 1
1  Fc1ccc(CCN2CCN(CC(F)Cc3c[nH]c4ccc(-n5cnnc5)cc34)CC2)cc1 (centres undefined)      label 0
2  c1ccc(CC2CCN(CCCc3c[nH]c4ccc(-n5cnnc5)cc34)CC2)cc1      label 1
3  FC1(Cc2ccccc2C(F)(F)F)CCN(CCCc2c[nH]c3ccc(-n4cnnc4)cc23)CC1      label 1
4  F[C@@H]1CN(CCCc2c[nH]c3ccc(-n4cnnc4)cc23)CC[C@@H]1NCc1ccccc1C(F)(F)F      label 0

Is reported pIC50 greater than or equal to 7 here: `Fc1cccc(CCC2(F)CCN(CCCc3c[nH]c4ccc(-n5cnnc5)cc34)CC2)c1`
label 1

Is reported pIC50 greater than or equal to 7 here: `FC(F)(Cc1c[nH]c2ccc(-n3cnnc3)cc12)CN1CCC(Cc2ccccc2)CC1`
label 0

Is reported pIC50 greater than or equal to 7 here: CC(CN1CCN(CC(F)(F)Cc2c[nH]c3ccc(-n4cnnc4)cc23)CC1)c1ccc(F)cc1 (centres undefined)
label 0

====

Assay: pKa value was determined
Format: physicochemical
EXPERIMENTAL_ENDPOINT: pKa
I'd appreciate a reply containing only the number, no unit.

Form field: reported pKa of `Fc1cccc(CCN2CCN(CCCc3c[nH]c4ccc(-n5cnnc5)cc34)CC2)c1`
8.3

====

Target: UniProt P28221
Sequence (P28221 whole entry): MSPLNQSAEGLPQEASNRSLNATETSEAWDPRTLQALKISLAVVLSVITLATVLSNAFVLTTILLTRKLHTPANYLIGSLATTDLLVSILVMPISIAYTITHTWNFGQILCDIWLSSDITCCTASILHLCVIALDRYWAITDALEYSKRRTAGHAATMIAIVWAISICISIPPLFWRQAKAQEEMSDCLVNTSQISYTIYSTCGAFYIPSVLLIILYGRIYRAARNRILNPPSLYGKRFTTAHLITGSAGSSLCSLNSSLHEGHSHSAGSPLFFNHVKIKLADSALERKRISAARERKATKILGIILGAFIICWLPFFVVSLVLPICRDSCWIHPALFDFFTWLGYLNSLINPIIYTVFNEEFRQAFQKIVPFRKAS
Test: Efficacy was evaluated relative to human 5-hydroxytryptamine 1D receptor using [35S]GTP-gamma-S, as radioligand
Format: functional
Each entry below lists one item and its recorded Efficacy value.
Kindly provide the numeric value in % only, without the unit symbol.

In [3]: df
Out[3]:
                                   molecule  experimental_target  experimental_endpoint  recorded_value
0  CC(CN1CCN(CC(F)(F)Cc2c[nH]c3ccc(-n4cnnc4)cc23)CC1)c1ccccc1 (configuration not stated)       UniProt P28221               Efficacy             123
1  CC(CN1CCN(CC(F)Cc2c[nH]c3ccc(-n4cnnc4)cc23)CC1)c1cccc(F)c1 (configuration not stated)       UniProt P28221               Efficacy             112
2  CC(CN1CCN(CC(F)Cc2c[nH]c3ccc(-n4cnnc4)cc23)CC1)c1ccc(F)cc1 (configuration not stated)       UniProt P28221               Efficacy             106
3  FC(F)(Cc1c[nH]c2ccc(-n3cnnc3)cc12)CN1CCC(OCc2ccccc2)CC1       UniProt P28221               Efficacy             100
4  FC1(Cc2ccccc2C(F)(F)F)CCN(CCCc2c[nH]c3ccc(-n4cnnc4)cc23)CC1       UniProt P28221               Efficacy              61
5  CC(CC1(F)CCN(CCCc2c[nH]c3ccc(-n4cnnc4)cc23)CC1)c1ccccc1 (configuration not stated)       UniProt P28221               Efficacy              86

Form field: reported Efficacy of `Fc1cccc(CCN2CCN(CC(F)(F)Cc3c[nH]c4ccc(-n5cnnc5)cc34)CC2)c1`
78
